Origin of measurements: ChEMBL document CHEMBL2390832

- Test system: A549
- methodDescription: Anticancer activity against human A549 cells at =/> 100 uM after 48 hrs by MTT assay
- Assay type: functional, cell-based
The source made the active and inactive calls. No cut-off for these calls is given here.
reportedProperty: Activity

Exercise: Assign Activity to the following record: O=c1c(-c2ccc(OCCCl)cc2)coc2cc(OCCCl)ccc12
Key: inactive

Exercise: Specify Activity for CCOc1ccc2c(c1)C(=O)c1cc(OCCO)ccc1-2 and stop.
Key: inactive

Exercise: Fill in Activity for record CC(C)(C)SCCOc1ccc2c(c1)C(=O)c1cc(OCCSC(C)(C)C)ccc1-2
Key: inactive

Exercise: Supply reported Activity belonging to this compound: CCOc1ccc2c(c1)C(=O)c1cc(OCCCl)ccc1-2
Key: inactive

Exercise: Identify measured Activity corresponding to CC(C)SCCOc1ccc2c(c1)C(=O)c1cc(OCCSC(C)C)ccc1-2
Key: inactive

Now for another entry.
Exercise: Give reported Activity value for O=c1c(-c2ccc(OCCCBr)cc2)coc2cc(OCCCBr)ccc12
Key: inactive
